# ASSAYED_SYSTEM: Recombinant S. cerevisiae Ess1 protein (Saccharomyces cerevisiae, UniProt P22696)
# Construct: made in house; host or cells: Escherichia coli
# METHOD: Biolayer interferometry (BLI) kinetic assays of Ess1/peptide binding
# APPLIED_CONDITIONS: read-out: kd (dissociation rate)
Non-standard residues stand in square brackets, D forms with d. Residues, ends and D or L forms follow the SMILES beside them. pS = N[C@@H](COP(=O)(O)O)C(=O)O
Assignment: determine reported koff for the given molecules.
Just the number please, in s⁻¹, no unit attached.

Kindly note the recorded koff for CC(C)C[C@H](NC(=O)[C@H](CCC(=O)O)NC(=O)[C@H](CCCNC(=N)N)NC(=O)[C@H](CO)NC(=O)CNC(=O)CNC(=O)[C@H](CO)NC(=O)CNC(=O)CN)C(=O)NCC(=O)N[C@@H](COP(=O)(O)O)C(=O)N1CCC[C@H]1C(=O)N[C@@H](CC(C)C)C(=O)N[C@@H](CCCCN)C(=O)N[C@@H](CCCCN)C(=O)O [Swi6-NLS-P] (H-GGSGGSRELG[pS]PLKK-OH) , which is 0.254

For record CC(C)C[C@H](NC(=O)[C@H](CCCNC(=N)N)NC(=O)[C@@H]1CCCN1C(=O)[C@H](COP(=O)(O)O)NC(=O)[C@@H]1CCCN1C(=O)[C@H](COP(=O)(O)O)NC(=O)[C@H](CC(C)C)NC(=O)[C@H](Cc1ccccc1)NC(=O)CNC(=O)CNC(=O)[C@H](CO)NC(=O)CNC(=O)CN)C(=O)N[C@@H](CCCNC(=N)N)C(=O)N[C@@H](COP(=O)(O)O)C(=O)N1CCC[C@H]1C(=O)N1CCC[C@H]1C(=O)N[C@H](C(=O)O)[C@@H](C)O [Whi5-NES-P] (H-GGSGGFL[pS]P[pS]PRLR[pS]PPT-OH) the listed koff is 0.0503

Record CC[C@H](C)[C@H](NC(=O)CNC(=O)[C@@H]1CCCN1C(=O)[C@@H]1CCCN1C(=O)[C@H](COP(=O)(O)O)NC(=O)[C@@H]1CCCN1C(=O)[C@@H]1CCCN1C(=O)[C@H](COP(=O)(O)O)NC(=O)[C@@H]1CCCN1C(=O)[C@@H](NC(=O)CNC(=O)CNC(=O)[C@H](CO)NC(=O)CNC(=O)CN)[C@@H](C)O)C(=O)O [Whi5-NLS-P] (H-GGSGGTP[pS]PP[pS]PPGI-OH) . Reported koff: 0.0722

Record C[C@@H](O)[C@H](NC(=O)[C@@H]1CCCN1C(=O)[C@H](CO)NC(=O)[C@H](Cc1ccc(O)cc1)NC(=O)[C@H](CO)NC(=O)CNC(=O)CNC(=O)[C@H](CO)NC(=O)CNC(=O)CN)C(=O)N[C@@H](COP(=O)(O)O)C(=O)N1CCC[C@H]1C(=O)N[C@@H](CO)C(=O)N[C@@H](Cc1ccc(O)cc1)C(=O)N[C@@H](CO)C(=O)O [CTD-P, reference compound] (H-GGSGGSYSPT[pS]PSYS-OH) , field koff: 0.0923

====

Task for the reader: assign each of the following compounds its reported kon.
# ASSAYED_SYSTEM: Recombinant S. cerevisiae Ess1 protein (Saccharomyces cerevisiae)
# Construct: made in house; host or cells: Escherichia coli
# Sequence (P22696 1-170): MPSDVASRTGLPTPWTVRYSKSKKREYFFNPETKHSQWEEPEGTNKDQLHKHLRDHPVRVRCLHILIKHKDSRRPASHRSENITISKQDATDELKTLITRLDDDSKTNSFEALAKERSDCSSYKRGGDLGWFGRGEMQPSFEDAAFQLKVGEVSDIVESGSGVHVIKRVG
# METHOD: Biolayer interferometry (BLI) kinetic assays of Ess1/peptide binding
# APPLIED_CONDITIONS: BLI; slope of kobs vs Ess1 concentration (Fig. S2); read-out: ka (association rate)
Non-standard residues stand in square brackets, D forms with d. Residues, ends and D or L forms follow the SMILES beside them. pS = N[C@@H](COP(=O)(O)O)C(=O)O

Entry CC(C)C[C@H](NC(=O)[C@H](CCC(=O)O)NC(=O)[C@H](CCCNC(=N)N)NC(=O)[C@H](CO)NC(=O)CNC(=O)CNC(=O)[C@H](CO)NC(=O)CNC(=O)CN)C(=O)NCC(=O)N[C@@H](COP(=O)(O)O)C(=O)N1CCC[C@H]1C(=O)N[C@@H](CC(C)C)C(=O)N[C@@H](CCCCN)C(=O)N[C@@H](CCCCN)C(=O)O [Swi6-NLS-P] (H-GGSGGSRELG[pS]PLKK-OH) ; kon = 25100 M⁻¹ s⁻¹

# compound CC[C@H](C)[C@H](NC(=O)CNC(=O)[C@@H]1CCCN1C(=O)[C@@H]1CCCN1C(=O)[C@H](COP(=O)(O)O)NC(=O)[C@@H]1CCCN1C(=O)[C@@H]1CCCN1C(=O)[C@H](COP(=O)(O)O)NC(=O)[C@@H]1CCCN1C(=O)[C@@H](NC(=O)CNC(=O)CNC(=O)[C@H](CO)NC(=O)CNC(=O)CN)[C@@H](C)O)C(=O)O [Whi5-NLS-P] (H-GGSGGTP[pS]PP[pS]PPGI-OH) ; its kon = 22800 M⁻¹ s⁻¹

Looking up CC(C)C[C@H](NC(=O)[C@H](CCCNC(=N)N)NC(=O)[C@@H]1CCCN1C(=O)[C@H](COP(=O)(O)O)NC(=O)[C@@H]1CCCN1C(=O)[C@H](COP(=O)(O)O)NC(=O)[C@H](CC(C)C)NC(=O)[C@H](Cc1ccccc1)NC(=O)CNC(=O)CNC(=O)[C@H](CO)NC(=O)CNC(=O)CN)C(=O)N[C@@H](CCCNC(=N)N)C(=O)N[C@@H](COP(=O)(O)O)C(=O)N1CCC[C@H]1C(=O)N1CCC[C@H]1C(=O)N[C@H](C(=O)O)[C@@H](C)O [Whi5-NES-P] (H-GGSGGFL[pS]P[pS]PRLR[pS]PPT-OH) , I see its kon listed as 17500 M⁻¹ s⁻¹

For this compound ( C[C@@H](O)[C@H](NC(=O)[C@@H]1CCCN1C(=O)[C@H](CO)NC(=O)[C@H](Cc1ccc(O)cc1)NC(=O)[C@H](CO)NC(=O)CNC(=O)CNC(=O)[C@H](CO)NC(=O)CNC(=O)CN)C(=O)N[C@@H](COP(=O)(O)O)C(=O)N1CCC[C@H]1C(=O)N[C@@H](CO)C(=O)N[C@@H](Cc1ccc(O)cc1)C(=O)N[C@@H](CO)C(=O)O [CTD-P, reference compound] (H-GGSGGSYSPT[pS]PSYS-OH) ), measured kon is 27100 M⁻¹ s⁻¹

====

# ASSAYED_SYSTEM: Recombinant S. cerevisiae Ess1 protein (Saccharomyces cerevisiae, UniProt P22696)
# Construct: made in house; host or cells: Escherichia coli
# METHOD: Biolayer interferometry (BLI) kinetic assays of Ess1/peptide binding
# APPLIED_CONDITIONS: BLI, 24°, 20 mM Tris-HCl pH 8.0, 1 mg/mL BSA; plateau binding responses vs Ess1 concentration (3, 10, 30 μM) fit to hyperbolic binding isotherm; read-out: KappEq (Equilibrium)
Non-standard residues stand in square brackets, D forms with d. Residues, ends and D or L forms follow the SMILES beside them. pS = N[C@@H](COP(=O)(O)O)C(=O)O
PROPERTY: Kd
Note to self: number, then unit, no commentary.

Kindly note the recorded Kd for CC(C)C[C@H](NC(=O)[C@H](CCCNC(=N)N)NC(=O)[C@@H]1CCCN1C(=O)[C@H](COP(=O)(O)O)NC(=O)[C@@H]1CCCN1C(=O)[C@H](COP(=O)(O)O)NC(=O)[C@H](CC(C)C)NC(=O)[C@H](Cc1ccccc1)NC(=O)CNC(=O)CNC(=O)[C@H](CO)NC(=O)CNC(=O)CN)C(=O)N[C@@H](CCCNC(=N)N)C(=O)N[C@@H](COP(=O)(O)O)C(=O)N1CCC[C@H]1C(=O)N1CCC[C@H]1C(=O)N[C@H](C(=O)O)[C@@H](C)O [Whi5-NES-P] (H-GGSGGFL[pS]P[pS]PRLR[pS]PPT-OH) , which is 1130 nM

====

# ASSAYED_SYSTEM: Recombinant S. cerevisiae Ess1 protein (Saccharomyces cerevisiae, UniProt P22696)
# Construct: made in house; host or cells: Escherichia coli
# Sequence (P22696 1-170): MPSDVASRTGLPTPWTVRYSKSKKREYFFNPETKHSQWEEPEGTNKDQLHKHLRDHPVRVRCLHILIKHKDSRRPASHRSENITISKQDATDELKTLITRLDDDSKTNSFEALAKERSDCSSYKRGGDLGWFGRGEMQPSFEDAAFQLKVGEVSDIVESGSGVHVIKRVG
# METHOD: Biolayer interferometry (BLI) kinetic assays of Ess1/peptide binding
# APPLIED_CONDITIONS: BLI, 24°, 20 mM Tris-HCl pH 8.0, 1 mg/mL BSA; plateau binding responses vs Ess1 concentration (3, 10, 30 μM) fit to hyperbolic binding isotherm; read-out: KappEq (Equilibrium)
Non-standard residues stand in square brackets, D forms with d. Residues, ends and D or L forms follow the SMILES beside them. pS = N[C@@H](COP(=O)(O)O)C(=O)O
PROPERTY: Kd (nM)
Lab book: enter the figure in nM, no units written.

Measured Kd, CC[C@H](C)[C@H](NC(=O)CNC(=O)[C@@H]1CCCN1C(=O)[C@@H]1CCCN1C(=O)[C@H](COP(=O)(O)O)NC(=O)[C@@H]1CCCN1C(=O)[C@@H]1CCCN1C(=O)[C@H](COP(=O)(O)O)NC(=O)[C@@H]1CCCN1C(=O)[C@@H](NC(=O)CNC(=O)CNC(=O)[C@H](CO)NC(=O)CNC(=O)CN)[C@@H](C)O)C(=O)O [Whi5-NLS-P] (H-GGSGGTP[pS]PP[pS]PPGI-OH) : 480

For CC(C)C[C@H](NC(=O)[C@H](CCC(=O)O)NC(=O)[C@H](CCCNC(=N)N)NC(=O)[C@H](CO)NC(=O)CNC(=O)CNC(=O)[C@H](CO)NC(=O)CNC(=O)CN)C(=O)NCC(=O)N[C@@H](COP(=O)(O)O)C(=O)N1CCC[C@H]1C(=O)N[C@@H](CC(C)C)C(=O)N[C@@H](CCCCN)C(=O)N[C@@H](CCCCN)C(=O)O [Swi6-NLS-P] (H-GGSGGSRELG[pS]PLKK-OH) the compound record lists Kd as 10100

Reported Kd for C[C@@H](O)[C@H](NC(=O)[C@@H]1CCCN1C(=O)[C@H](CO)NC(=O)[C@H](Cc1ccc(O)cc1)NC(=O)[C@H](CO)NC(=O)CNC(=O)CNC(=O)[C@H](CO)NC(=O)CNC(=O)CN)C(=O)N[C@@H](COP(=O)(O)O)C(=O)N1CCC[C@H]1C(=O)N[C@@H](CO)C(=O)N[C@@H](Cc1ccc(O)cc1)C(=O)N[C@@H](CO)C(=O)O [CTD-P, reference compound] (H-GGSGGSYSPT[pS]PSYS-OH) was 1650
